Molecular target: T1, human TIGIT-Fc (rhTIGIT-Fc, R&D Systems) (human, UniProt Q495A1 22-141)
T1 construct: Bought protein; also called human TIGIT (rhTIGIT-Fc); not shown: Fc part of the bought fusion protein
T1 sequence: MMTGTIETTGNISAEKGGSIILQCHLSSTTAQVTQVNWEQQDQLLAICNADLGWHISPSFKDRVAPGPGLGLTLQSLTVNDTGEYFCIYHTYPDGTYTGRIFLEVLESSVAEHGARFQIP
Test: SPR (BIAcore T200), antibody immobilised on CM5 chip, TIGIT-Fc flowed
quantity.name: kon (M⁻¹ s⁻¹)

binder="F04-10-IgG1 (antibody, V domains shown, also called antibody based on the F04-10 clones) VH: EVQLLESGGGLVQPGGSLRLSCAASGFTFSSYYMSWVRQAPGKGLEWVSSIGSGSPSSTYYADSVKGRFTISRDNSKNTLYLQMNSLRAEDTAVYYCARSSYSGGNGYYYYAYAFDYWGQGTLVTVSS VL: EIVLTQSPGTLSLSPGERATLSCRASQSVSSSYLAWYQQKPGQAPRLLIYGASSRATGIPDRFSGSGSGTDFTLTISRLEPEDFAVYYCQQGYHRYATFGQGTKVEIK" reported=70500

// data source = patent US20210087268A1
